Consider the following compounds and their measured inhibition readings.
SYSTEM: Cyclic GMP-AMP synthase (Homo sapiens) (UniProt Q8N884)
Sequence (Q8N884 whole entry, looked up): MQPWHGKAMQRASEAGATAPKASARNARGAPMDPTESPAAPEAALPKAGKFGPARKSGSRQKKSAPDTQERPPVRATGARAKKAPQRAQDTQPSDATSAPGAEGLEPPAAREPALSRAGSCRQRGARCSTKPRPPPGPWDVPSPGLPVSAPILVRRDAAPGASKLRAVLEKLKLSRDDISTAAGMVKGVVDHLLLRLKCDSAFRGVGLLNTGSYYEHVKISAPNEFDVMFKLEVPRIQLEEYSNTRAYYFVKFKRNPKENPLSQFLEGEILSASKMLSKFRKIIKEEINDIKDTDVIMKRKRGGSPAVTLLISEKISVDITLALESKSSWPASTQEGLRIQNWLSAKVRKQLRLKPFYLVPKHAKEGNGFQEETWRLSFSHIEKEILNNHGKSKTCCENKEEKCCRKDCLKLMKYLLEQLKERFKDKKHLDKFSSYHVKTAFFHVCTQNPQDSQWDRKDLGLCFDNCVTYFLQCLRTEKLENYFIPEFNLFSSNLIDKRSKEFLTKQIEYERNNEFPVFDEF
METHOD_NOTES: Primary biochemical luminescence assay for human cyclic GMP-AMP synthase inhibitors (AID 1259398);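 further: 0% = vehicle reaction and 100% = reaction without DNA for no activity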
STATED_CONDITIONS: recombinant h-cGAS, ATP depletion, Kinase-Glo luminescence; at 12.5 µM; active compounds read high
Hit rate of the full screen: of about 290,000 compounds, about 230 (0.079%) were called active. The full list was thinned out, with actives kept by preference.

| COMPOUND | ENDPOINT_UNIT | inhibition |
| --- | --- | --- |
| Cc1ccc(CSc2nc(=O)n(CCO)c3c2CCC3)cc1 | % | -6.25 |
| CCn1ncc(C(=O)N2CC[C@@H]3CN(S(C)(=O)=O)[C@@H]3C2)c1C | % | -7.55 |
| CCc1c(C(=O)N2CCCC2)c(CC(C)C)nn1-c1ccc(Cl)cc1 | % | -4.87 |
| CC(C(=O)N1CCCCCC1)N1CCCC(C(=O)Nc2ccccc2)C1 (stereo not given) | % | -13.6 |
| O=C(c1cc(-c2ccccc2F)on1)N1CCc2ccc(O)cc2C1 | % | -0.786 |
| Cc1csc(C2CCN(S(=O)(=O)c3ccc(F)cc3Cl)CC2)n1 | % | -7.52 |
| O=C(CCNC(=O)C1CC2(CCNCC2)CN1)Nc1nccs1 (stereo not given) | % | -7.06 |
| CCOC(=O)c1cc(-c2ccccc2)sc1NC(=O)CC1CCCC1 | % | -6.75 |
| COc1ccc(-c2nnc(SCC(=O)N/N=C\c3ccccn3)n2-c2ccccc2)cc1OC | % | 1.79 |
| CC1CC(=O)C2C=Nc3ccccc3N=C2C1 (stereo not given) | % | -2.79 |

====

SYSTEM: Cyclic GMP-AMP synthase (Homo sapiens) (UniProt Q8N884)
METHOD_NOTES: Primary biochemical luminescence assay for human cyclic GMP-AMP synthase inhibitors (AID 1259398);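 further: 0% = vehicle reaction and 100% = reaction without DNA for no activity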
STATED_CONDITIONS: recombinant h-cGAS, ATP depletion, Kinase-Glo luminescence; at 12.5 µM; active compounds read high
In all, about 290,000 compounds went through this assay and about 230 (0.079%) were called active. Many of the other results were omitted from the sample, so actives are more common in it than they were.

| COMPOUND | ENDPOINT_UNIT | inhibition |
| --- | --- | --- |
| CN(CCCOc1ccccc1Cl)C(=O)C1(N)CC1 | % | -6.84 |
| CC(C)(CNC(=O)c1cc2cccc(F)c2o1)C1CCCCO1 (stereo not given) | % | -5.71 |
| Cc1ncc(CN(C)CC2CCN(c3ccccc3)C2)[nH]1 (stereo not given) | % | -4.21 |
| Cc1cc(Nc2ccc3c(n2)C(=O)N(CC(=O)NCCCn2ccnc2)C3)n(C)n1 | % | -11.5 |
| N#CC1C(=N)SC(=N)C(C#N)C1c1ccnc2ccccc12 (stereo not given) | % | -1.27 |
| CCC(CO)N(Cc1ccc(F)cc1)Cc1c(C)nn(C)c1Cl (stereo not given) | % | -10.3 |
| C=CCn1c(SCC(=O)c2cc(C)n(Cc3ccco3)c2C)nc2sc(C)c(C)c2c1=O | % | -4.88 |
| CC(=O)CC1C(CC(=O)O)C1(C)C (stereo not given) | % | -5.25 |
| CC[N+](C)(CC)CCC[n+]1c(-c2ccccc2)c2cc(N)ccc2c2ccc(N)cc21 | % | 57.3 |
| CC(CN1CCOCC1)NC(=O)N1CCCc2cc(F)c(F)cc21 (stereo not given) | % | -4.63 |
| O=C(NC(Cc1ccccc1)C(=O)Nc1nnc(-c2cccc(Cl)c2)s1)c1cccc(C(F)(F)F)c1 (stereo not given) | % | -8.87 |
| CCC1CSC(=Nc2ccc(Cl)cc2)N1C(=O)c1ccc(C)nc1 (stereo not given) | % | -0.466 |
| O=C1NC(C(=O)N2Cc3cnc(-c4ccccc4)nc3C2)CO1 (stereo not given) | % | -0.988 |
| O=C(Nc1nnc(-c2ccc(Cl)cc2)s1)C1CCCN1S(=O)(=O)c1ccc(F)cc1 (stereo not given) | % | -2.72 |
| CC(=O)c1[nH]c(C)c(C(=O)N2CCCCC2CCc2ccccn2)c1C (stereo not given) | % | -5.8 |
| CCN1C(=O)N(Cc2cccc(OC)c2)C(=O)C12CCN(Cc1cn[nH]c1-c1ccc(F)cc1)CC2 | % | 11 |
| CCCc1nnc2sc(Cc3csc(C)n3)nn12 | % | -7.66 |
| N#Cc1cccc(COc2ccc(NC(=O)NCCO)cc2Cl)c1 | % | 0.266 |
| Cc1cccc(C2SCC(=O)N2CC(=O)NCc2ccncc2)c1 (stereo not given) | % | -4.08 |
| Cc1cc(NC(=O)Cc2cccs2)n(-c2nc(-c3cccs3)cs2)n1 | % | -2.04 |
| Cc1noc(C)c1CN1CCN2C=C(C(=O)NC3CCc4ccccc43)OC2=NC1=O (stereo not given) | % | -7.38 |
| COCc1nnc2sc(Cc3ccc4c(c3)CCCC4)nn12 | % | 45.2 |
| Cc1ccc(NC(=O)C2C(C=C(Cl)Cl)C2(C)C)cc1 (stereo not given) | % | -4.28 |
| CN1CCn2nc(C(=O)NC(c3ccccc3)c3ccco3)cc2C1 (stereo not given) | % | -5.91 |
| CCOc1cccc(-c2ccc(Nc3ccc(OC)cc3C)nc2)c1 | % | -0.0439 |
| CC(C)CN(CC(C)C)C(=O)c1cccnc1Nc1cccc(C(F)(F)F)c1 | % | -2.78 |
| Cc1noc(C)c1S(=O)(=O)N1CCCC1c1ccccn1 (stereo not given) | % | -4.73 |
| C=CCCC(O)CN(Cc1c(CC)nn(-c2ccccc2)c1Oc1cccc(OC)c1)CC1CC1 (stereo not given) | % | -5.62 |
| O=C(CCCOc1cccc(Cl)c1Cl)N1CCN(C2CCOC2)CC1 (stereo not given) | % | -4.45 |
| CCN1CCN(c2ccccc2NS(=O)(=O)c2cc(Br)ccc2OC)CC1 | % | -2.43 |
| CC(=O)CC1(O)C(=O)Nc2ccc(I)cc21 (stereo not given) | % | 2.23 |
| C=CCNc1ccccc1C(=O)N1[C@@H]2CC[C@H]1CC(O)C2 (stereo not given in full) | % | -2.12 |
| CC(C)Nc1ccc(C(=O)N[C@H](C)C(C)(C)C)cn1 | % | -9.34 |
| N#CC1C(=N)SC(=N)C(C#N)C1c1cccc(O)c1 (stereo not given) | % | 65.3 |
| NC(=O)COc1ccc(C(=O)N2CCCC2CCc2ccccc2)cc1 (stereo not given) | % | -3.77 |

Data origin, for the record: PubChem BioAssay AID1259398
